# method: Toxicity liver stage against HepG2, at 10uM
# Format: cell-based
# Parameters: test concentration 10 uM, cell line HepG2-A16-CD81EGFP
# conditionSummary: human, HepG2-A16-CD81EGFP cells; read-out: INHIBITION
readout: cytotoxicity at 10 µM (%)

>>> numericreadout("CNc1cc(C2CN(C(=O)c3cscn3)CCO2)nc(C)n1 (configuration not stated)")
9.49
>>> numericreadout("CCCS(=O)(=O)N1CCC2(CCC(=O)N(CCc3ccncc3)C2)CC1")
-11.7
>>> numericreadout("O=C(C1CCCCC1)N1CC2(CCNCC2)C1")
-8.58
>>> numericreadout("NCC1Cc2cc(-c3cncc(C(=O)N4CCOCC4)n3)cc(Cl)c2O1 (configuration not stated)")
-42.8
>>> numericreadout("CC(C)COCc1cncc2c1CCN(Cc1cnn(C)c1)C2")
-7.96
>>> numericreadout("CC(C)[C@]1(O)CN(C(=O)CNC(N)=O)C[C@H]1C")
5.69
>>> numericreadout("Cc1cc2c(cc1NC(=O)NCC(C)C)OCO2")
1.01
>>> numericreadout("COCCC1CCCCN1C(=O)c1coc(COc2ccccc2F)n1 (configuration not stated)")
3.97
>>> numericreadout("Cc1noc(C)c1CCC(=O)NC(C)c1nnc2n1CCCCC2 (configuration not stated)")
-1.18
>>> numericreadout("CC1(c2ncc(CN3CCSCC3)cn2)CCCCO1 (configuration not stated)")
2.12
>>> numericreadout("CCc1cc(=O)[nH]c(SCc2ccccn2)n1")
-0.543
>>> numericreadout("CC(C)c1nn(C)cc1CNCc1ccnc(N(C)C)c1")
-0.431

====

# method: Toxicity liver stage against HepG2, at 10uM
# Format: cell-based
# Set-up: test concentration 10 uM, cell line HepG2-A16-CD81EGFP
# conditionSummary: human, HepG2-A16-CD81EGFP cells; read-out: INHIBITION
readout: cytotoxicity at 10 µM (%)

>>> numericreadout("COc1ccc(C)cc1NC(=O)Nc1cnc(O)nc1O")
-3.79
>>> numericreadout("Cc1nn(C)c2c(N3CCSCC3)nc(C3CC3)nc12")
7.29
>>> numericreadout("CN(C)C(=O)N1CCC2(CC1)NC(=O)c1ccccc12")
-10.1
>>> numericreadout("CCCn1ncc(C(=O)N2CCN([C@H]3CCCC[C@@H]3O)CC2)c1C")
-137
>>> numericreadout("Cc1ccc(CNC2CCCc3c2cnn3Cc2ccccc2)s1 (stereo unspecified)")
0.338
>>> numericreadout("O=C(NCC1CC1)C1CCC2(CN(C(=O)c3ccno3)C2)O1 (stereo unspecified)")
-138

====

# method: Toxicity liver stage against HepG2, at 10uM
# Assay type: cell-based
# Design: test concentration 10 uM, cell line HepG2-A16-CD81EGFP
# conditionSummary: human, HepG2-A16-CD81EGFP cells; read-out: INHIBITION
readout: cytotoxicity at 10 µM (%)

>>> numericreadout("CC(C)(O)CCc1cccc(C(=O)N[C@@H](CO)C(N)=O)c1")
4.76
>>> numericreadout("CC(C)(O)CCc1cccc(C(=O)N2Cc3cnn(CCO)c3C2)c1")
4.62
>>> numericreadout("Cn1cc(CN2C[C@H]3CCN(C(=O)c4cscn4)C[C@H]3C2)cn1")
4.12
>>> numericreadout("O=C(Nc1ccccc1)C1=NOC2(CCNCC2)C1")
5.77
>>> numericreadout("CS(=O)(=O)N1CCN(CC2CC2)c2ncccc2C1")
-152
>>> numericreadout("O=C1CCC2(CCN(S(=O)(=O)c3ccccc3)CC2)N1CC1CC1")
3.41
>>> numericreadout("Cc1cc(NC(=O)CSc2nc(=O)ccn2C(C)C)no1")
0.841
>>> numericreadout("CC(C)CN1C(=O)C2(CCCC2)NC1c1cn(C)c(=O)n(C)c1=O (stereo unspecified)")
2.8
>>> numericreadout("CCOCCOC(C)C(=O)Nc1ccc2ccn(CCN(C)C)c2c1 (stereo unspecified)")
10.1
>>> numericreadout("O=C(c1cc(C2CC2)[nH]n1)N1CCN(Cc2ccncc2)CC1")
-10.9
>>> numericreadout("CCN(CC)c1ncc(CNC2CCc3nc(C(C)C)nn3C2)s1 (stereo unspecified)")
4.24
